Ref: patent US20230117034A1

molecular target: CDK12 (nuclear staining in CAL-120 cells) (Homo sapiens, UniProt Q9NYV4); construct: endogenous in cells; host or cells: CAL-120 human breast cancer cells (DSMZ ACC 459); assay: CDK12 nuclear protein level: immunofluorescence/high content analysis (CAL-120); assay type: cell-based; details: ratio of IC50 CDK12 high ATP kinase assay to DC50 CDK12 degradation (IF, CAL-120)
Sequence (Q9NYV4 whole entry): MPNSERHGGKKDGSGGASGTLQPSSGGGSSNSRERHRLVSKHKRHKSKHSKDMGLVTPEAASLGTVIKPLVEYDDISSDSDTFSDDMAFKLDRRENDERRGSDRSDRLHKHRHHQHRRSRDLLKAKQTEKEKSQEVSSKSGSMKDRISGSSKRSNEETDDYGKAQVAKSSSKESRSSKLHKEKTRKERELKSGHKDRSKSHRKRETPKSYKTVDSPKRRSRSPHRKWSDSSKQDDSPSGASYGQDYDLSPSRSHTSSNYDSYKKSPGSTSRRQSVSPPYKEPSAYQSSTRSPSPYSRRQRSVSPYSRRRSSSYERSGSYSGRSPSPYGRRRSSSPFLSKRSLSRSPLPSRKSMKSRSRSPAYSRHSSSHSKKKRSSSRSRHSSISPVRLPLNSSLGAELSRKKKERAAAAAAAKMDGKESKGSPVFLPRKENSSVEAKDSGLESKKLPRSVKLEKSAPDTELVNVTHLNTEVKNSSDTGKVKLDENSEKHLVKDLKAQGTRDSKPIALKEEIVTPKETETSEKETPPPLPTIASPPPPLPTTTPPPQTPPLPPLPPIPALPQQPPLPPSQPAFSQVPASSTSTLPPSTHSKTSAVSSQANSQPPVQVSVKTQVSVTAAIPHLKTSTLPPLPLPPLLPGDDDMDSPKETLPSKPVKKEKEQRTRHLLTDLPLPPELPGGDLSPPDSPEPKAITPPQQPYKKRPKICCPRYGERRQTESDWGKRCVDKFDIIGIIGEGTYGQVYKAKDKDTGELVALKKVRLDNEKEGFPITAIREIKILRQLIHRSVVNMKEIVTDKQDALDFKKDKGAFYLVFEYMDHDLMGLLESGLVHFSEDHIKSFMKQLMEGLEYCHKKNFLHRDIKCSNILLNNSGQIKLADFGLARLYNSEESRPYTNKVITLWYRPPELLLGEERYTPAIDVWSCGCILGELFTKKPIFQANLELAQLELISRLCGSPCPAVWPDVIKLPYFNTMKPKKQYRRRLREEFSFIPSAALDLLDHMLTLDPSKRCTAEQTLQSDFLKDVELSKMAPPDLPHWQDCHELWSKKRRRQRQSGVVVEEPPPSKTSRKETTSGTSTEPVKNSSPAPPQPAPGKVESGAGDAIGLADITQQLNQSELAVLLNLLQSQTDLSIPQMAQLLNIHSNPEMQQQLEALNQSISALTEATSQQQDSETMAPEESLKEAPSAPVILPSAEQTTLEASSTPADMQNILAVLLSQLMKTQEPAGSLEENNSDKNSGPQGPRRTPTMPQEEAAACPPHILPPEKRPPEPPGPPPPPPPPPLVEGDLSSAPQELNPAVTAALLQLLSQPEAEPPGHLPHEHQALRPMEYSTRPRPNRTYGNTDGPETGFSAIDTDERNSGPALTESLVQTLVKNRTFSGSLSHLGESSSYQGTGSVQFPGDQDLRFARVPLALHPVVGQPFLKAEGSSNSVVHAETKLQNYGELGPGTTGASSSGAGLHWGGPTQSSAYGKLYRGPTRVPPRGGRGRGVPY
Sequence (O75909 whole entry partner): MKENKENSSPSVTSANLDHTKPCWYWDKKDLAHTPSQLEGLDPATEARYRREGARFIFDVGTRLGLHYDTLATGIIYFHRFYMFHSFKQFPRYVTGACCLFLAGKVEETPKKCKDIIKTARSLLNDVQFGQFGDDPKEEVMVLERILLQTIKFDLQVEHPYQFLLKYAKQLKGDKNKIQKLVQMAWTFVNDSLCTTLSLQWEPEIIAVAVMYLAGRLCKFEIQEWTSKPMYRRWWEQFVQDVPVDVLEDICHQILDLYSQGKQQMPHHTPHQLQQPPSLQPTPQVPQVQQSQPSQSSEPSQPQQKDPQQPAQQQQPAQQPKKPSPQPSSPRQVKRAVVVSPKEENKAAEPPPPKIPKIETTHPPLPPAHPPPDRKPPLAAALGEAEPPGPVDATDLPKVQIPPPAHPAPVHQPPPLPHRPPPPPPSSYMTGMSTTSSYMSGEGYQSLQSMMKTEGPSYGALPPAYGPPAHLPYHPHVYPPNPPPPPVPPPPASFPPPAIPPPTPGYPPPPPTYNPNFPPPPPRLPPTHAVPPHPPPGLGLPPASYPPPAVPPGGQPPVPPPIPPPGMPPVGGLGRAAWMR
Endpoint name: (IC50 CDK12 high ATP) to (Degradation DC50 CDK12) ratio

Below, 8 compounds whose answers are already recorded.
>>> df
                                   compound                            assayed_target  endpoint_result
0  Brc1cnn2c(NCc3nc4ccccc4[nH]3)nc(N3C[C@H]4C[C@@H]3CO4)nc12 [Example 102]  CDK12 (nuclear staining in CAL-120 cells) (Homo sapiens, UniProt Q9NYV4)             4897
1  OC[C@@H]1CCCCN1c1nc(NCc2nc3c(F)c(F)ccc3[nH]2)n2ncc(C3CC3)c2n1 [Example 184]  CDK12 (nuclear staining in CAL-120 cells) (Homo sapiens, UniProt Q9NYV4)                8
2  N#Cc1cccc(-c2nnc(CNc3nc(N4CCOCC4)nc4c(Br)cnn34)[nH]2)c1 [Example 55]  CDK12 (nuclear staining in CAL-120 cells) (Homo sapiens, UniProt Q9NYV4)              224
3  OC[C@@H]1CCCCN1c1nc(NCc2nnc(-c3ccccc3)[nH]2)n2ncc(Br)c2n1 [Example 70]  CDK12 (nuclear staining in CAL-120 cells) (Homo sapiens, UniProt Q9NYV4)               79
4  COc1ccc2[nH]c(CNc3nc(N4CCOCC4)nc4c(Br)cnn34)nc2c1 [Example 160]  CDK12 (nuclear staining in CAL-120 cells) (Homo sapiens, UniProt Q9NYV4)              889
5  CN1CCN(c2nc(NCc3nc4cc(OC(F)(F)F)ccc4[nH]3)n3ncc(Br)c3n2)CC1 [Example 377]  CDK12 (nuclear staining in CAL-120 cells) (Homo sapiens, UniProt Q9NYV4)              252
6  Brc1cnn2c(NCc3nc4ccccc4[nH]3)nc(N3C[C@H]4CC[C@@H]3CN4)nc12 (single isomer, unassigned) [Example 335]  CDK12 (nuclear staining in CAL-120 cells) (Homo sapiens, UniProt Q9NYV4)              798
7  FC(F)(F)c1ccc2[nH]c(CNc3nc(N4CCOCC4)nc4c(Br)cnn34)nc2c1 [Example 339]  CDK12 (nuclear staining in CAL-120 cells) (Homo sapiens, UniProt Q9NYV4)              204

1: FC(F)(F)Oc1cccc2[nH]c(CNc3nc(N4CCOCC4)nc4c(Br)cnn34)nc12 [Example 375]
2: FC(F)(F)c1cnn2c(NCc3nc4cc(Cl)c(Cl)cc4[nH]3)nc(N3CCOCC3)nc12 [Example 332]
3: COc1cccc2[nH]c(CNc3nc(N4CCN(C)CC4)nc4c(C5CC5)cnn34)nc12 [Example 197]
# desc sort on (IC50 CDK12 high ATP) to (Degradation DC50 CDK12) ratio across 3 compounds Returns: the labels arranged in the requested order.
3, 1, 2
